# System: Human alphaherpesvirus 1
# Test method notes: Antiviral activity against Herpes simplex virus 1 infected in primary rabbit kidney cells assessed as inhibition of virus-induced cytopathogenicity
# Type: functional
Assay metric: ID50 (×10⁻⁷ M)
Numbers only, in ×10⁻⁷ M.

Problem: Give the measured ID50 for O=c1[nH]c(=O)n([C@H]2C[C@H](O)[C@@H](CO)O2)cc1F
Result: 1.6

New cases:
Problem: Give the measured ID50 for O=c1[nH]c(=O)n([C@H]2C[C@H](O)[C@@H](CO)O2)cc1I
Result: 5.7

###

# System: Human alphaherpesvirus 1
# Test method notes: Antiviral activity against Herpes simplex virus 1 infected in primary rabbit kidney cells assessed as inhibition of virus-induced cytopathogenicity
# Assay type: functional
Assign ID50 to each entry below.
Give bare numbers, in ×10⁻⁷ M.

// below: answered compounds
Problem: Give the measured ID50 for O=c1[nH]c(=O)n([C@H]2C[C@H](O)[C@@H](CO)O2)cc1Br [BROXURIDINE]
Result: 3.2

Problem: Give the measured ID50 for O=c1[nH]c(=O)n([C@H]2C[C@H](O)[C@@H](CO)O2)cc1Cl [CHLORODEOXYURIDINE]
Result: 7.6

New cases:
Problem: Give the measured ID50 for O=c1[nH]c(=O)n([C@H]2C[C@H](O)[C@@H](CO)O2)cc1C(F)(F)F [TRIFLURIDINE]
Result: 6.6

###

# Test method notes: Dissociation constant, pKa of the compound by spectrophotometric analysis
# Type: physicochemical
Assay metric: pKa

Record pKa for all entries; do not skip any.
1. O=c1[nH]c(=O)n([C@H]2C[C@H](O)[C@@H](CO)O2)cc1I [IDOXURIDINE]
2. N#Cc1cn([C@H]2C[C@H](O)[C@@H](CO)O2)c(=O)[nH]c1=O

Result:
1. 8.2
2. 6.8
